Assay: small molecules captured by biotinylated probe aFSTL3 – biochemical, small-molecule microarray, fluorescence 635/667, stem cell growth factor project, primary screen (AID 1064);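 further: measures binding of the biotinylated anti-FSTL3 antibody to printed compounds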
Details: higher = more signal
composite z-score vs -0.2: at or above is criterion met, below is criterion not met.

Field: example entries. Status: answers known.
compound	label_value
O=c1cccc(-c2ccc([N+](=O)[O-])cc2)o1	criterion met
CCOC(=O)C[C@H]1[C@H](OC(=O)c2cc3ccccc3oc2=O)[C@@H](NC(=O)c2ccccc2)c2cc(OCCCO)ccc2N1C(=O)c1ccccc1	criterion not met
CC1CC/C=C\[C@H]2OC34C=CCN(Cc5ccccc5)C(=O)[C@H]3N(C(CO)C(C)C)C(=O)[C@@H]4C2C(=O)O1 (some centres undefined)	criterion met
CCCC1(C(=O)OC)C=C2C(=C(C)C(=O)C2C)CN1 (centres undefined)	criterion met
CCCCCC1=C2CNC(C)(C(=O)OC)C=C2C(C)C1=O (centres undefined)	criterion met
CCOC(=O)C1=C[C@@H](C(C)(C)C)N(S(=O)(=O)c2ccc(C)cc2)[C@H]1c1cccc2ccccc12	criterion met
C=CCNC(=O)[C@@H]1[C@H]2C(=O)O[C@H](c3ccccc3)[C@H](c3ccccc3)N2[C@H](c2ccc(O)cc2)[C@@]12C(=O)N(C(=O)OCCOC)c1ccc(C#CC3=CCCCC3)cc12	criterion not met
COCCOC(=O)N1C(=O)[C@@]2(c3cc(C#CCC(C(=O)OC)C(=O)OC)ccc31)[C@H](c1ccc(OCCO)cc1)N1[C@H](c3ccccc3)[C@H](c3ccccc3)OC(=O)[C@H]1[C@@H]2C(=O)N1CCc2cc(OC)c(OC)cc2C1	criterion met

Is composite z-score for C=CCOC(=O)[C@@H]1[C@H]2C(=O)O[C@H](c3ccccc3)[C@H](c3ccccc3)N2[C@H](c2ccc(OCCOC(=O)[C@@H]3C[C@@H]4C(=O)N[C@@H](CCCC[N+](C)(C)C)C(=O)N4[C@@H]3c3ccc(O)cc3)cc2)[C@@]12C(=O)Nc1ccc(I)cc12 at or above -0.2?
criterion met

Another compound to check: COc1ccccc1CN1C(=O)c2ccccc2[C@](Cc2ccccc2I)(C(=O)O)[C@@H]1c1ccc(CO)cc1
criterion not met

Another compound to check: [N-]=[N+]=Nc1ccccc1[C@@H]1OC(c2ccc(OCCCO)cc2)=N[C@]1(Cc1ccccc1)C(=O)O
criterion met

Another compound to check: C[N+](C)(C)CCCCCCNC(=O)[C@@H]1C[C@@H]2C(=O)N3CCC[C@H]3C(=O)N2[C@@H]1c1ccc(O)cc1
criterion met

Another compound to check: CC(C)C(O)C1C=CC2C(=O)N(c3ccccc3)C(=O)C2N1Nc1ccccc1 (centres undefined)
criterion not met

Another compound to check: NCCCCCNC(=O)[C@@H]1C[C@@H]2C(=O)N[C@@H](CCCCN)C(=O)N2[C@@H]1c1ccc(O)cc1
criterion met
